assay: Hemolysis of human erythrocytes; type: cell-based; conditions: 200 μM compound, 1 h, 37 °C
hemolysis at 1 h, 200 µM values by entry
measurement_kind: hemolysis at 1 h, 200 µM

>>> recorded_result("CC[n+]1c(/C=C/c2ccc(-c3ccc(N(c4ccc(OC)cc4)c4ccc(OC)cc4)cc3)s2)sc2ccccc21.[Br-] [TPA-NC-1, reference compound]")
"> 60%"
>>> recorded_result("C#CCC[n+]1c(/C=C/c2ccc(-c3ccc(N(c4ccc(OCCC[N+](C)(C)C)cc4)c4ccc(OCCC[N+](C)(C)C)cc4)cc3)s2)sc2ccccc21.[Br-].[Br-].[Br-] [TPA-1]")
"< 2%"
>>> recorded_result("CC[n+]1c(/C=C/c2ccc(-c3ccc(N(c4ccc(OCCC[N+](C)(C)C)cc4)c4ccc(OCCC[N+](C)(C)C)cc4)cc3)s2)sc2ccccc21.[Br-].[Br-].[Br-] [TPA-0]")
"< 3%"
